# System: NCI/ADR-RES ovarian
# measurement description: NCI-60 one-dose screen, 48 h (100 = growth as untreated, 0 = no growth, -100 = all killed)
# protocol conditions: 10 µM unless noted
About 83,000 compounds went through this panel and 20% of them were active in at least one assay; those are over-represented in the sample as a whole.
measured quantity: growth (%)

compound=COc1ccc(O)c2c(=O)c3c(OC)cc4c(c3oc12)[C@@H]1C=CO[C@@H]1O4 result_unit=% experimental_value=41.6
compound=COC(=O)C1=CO[C@@H](C)[C@@H]2CN3CCc4c([nH]c5cc(OC)ccc45)[C@@H]3C[C@H]12 result_unit=% experimental_value=93.8
compound=Cc1cc(NC(=O)NCCCOc2ccc(N3C(N)=NC(N)=NC3(C)C)cc2Cl)ccc1S(=O)(=O)F result_unit=% experimental_value=100
compound=CCCCn1c(=O)c(C(=O)NCc2ccccc2Cl)c(O)c2ccccc21 result_unit=% experimental_value=56.2
compound=COC[C@H]1OC(=O)c2coc3c2[C@@]1(C)C1=C(C3=O)[C@@H]2CCC(=O)[C@@]2(C)C[C@H]1OC(C)=O result_unit=% experimental_value=52.5
compound=Nc1ccc2c(c1)Cc1cc(N)ccc1-2 result_unit=% experimental_value=96.2
compound=O=CC1(c2ccccc2)CCN(Cc2ccccc2)CC1 result_unit=% experimental_value=101
compound="O=C(Cc1ccccc1)NC(O)C(Cl)(Cl)Cl (stereo not given)" result_unit=% experimental_value=107
compound=CCCCOCCOP(=O)(OCCOCCCC)OCCOCCCC result_unit=% experimental_value=99.7
compound=CO[C@H]1[C@H](O[C@@H]2C[C@@H]3C/C=C/C(=O)O[C@@H](CO)C[C@H](O)[C@@H]4C[C@H](C)[C@H](C/C=C\C=C\[C@H](C)C[C@H](C2)O3)O4)O[C@@H](C)[C@H](O)[C@H]1O result_unit=% experimental_value=55.8
compound="CCC(=O)C(CC(C)[N+](C)(C)C)(c1ccccc1)c1ccccc1 (stereo not given)" result_unit=% experimental_value=102
compound=OCCN=Cc1c[nH]c2ccccc12 result_unit=% experimental_value=100
compound=Cc1cc(Br)c([N+](=O)[O-])cc1[N+](=O)[O-] result_unit=% experimental_value=94.4
compound=CC[C@H](C)[C@H](NC(=O)[C@H]1CCCCN1C)C(=O)N(C)[C@H](C[C@@H](OC(C)=O)c1cccc(C(=O)N[C@@H](Cc2ccccc2)C[C@H](C)C(=O)OC)n1)C(C)C result_unit=% experimental_value=13.4
compound=CCOC(=O)P(=O)(OCC)OCC result_unit=% experimental_value=109
compound=COc1cc(/C=C\[N+](=O)[O-])ccc1OCc1ccccc1 result_unit=% experimental_value=69.2
compound=O=[N+]([O-])c1ccc2scc3c4ccccc4nc-3c2c1 result_unit=% experimental_value=10.7
compound=CC[C@H](C)[C@H](NC(=O)[C@H]1CCCCN1C)C(=O)N(C)[C@H](C[C@@H](OC(C)=O)c1nc(C(=O)N[C@@H](Cc2ccccc2)C[C@H](C)C(=O)O)cs1)C(C)C result_unit=% experimental_value=12.2
compound=Cc1c2ccncc2c(C)c2c1[nH]c1ccccc12 result_unit=% experimental_value=-46.9
compound="ClC1OC(Cl)(Cl)C(Cl)(Cl)OC1(Cl)Cl (stereo not given)" result_unit=% experimental_value=102

###

Listed molecules paired with reported growth
# Test system: ACHN renal
# measurement description: NCI-60 one-dose screen, 48 h (100 = growth as untreated, 0 = no growth, -100 = all killed)
# protocol conditions: 10 µM unless noted
This is part of a sample that, as a whole, favours compounds with a hit. Of some 83,000 tested, about 20% had one in any assay.
measured quantity: growth (%)

molecule=O=C(O)c1cc([N+](=O)[O-])cc([N+](=O)[O-])c1 tgt="ACHN renal" measured_quantity=growth experimental_value=105
molecule=Cc1cc(C(C)(C)C)ccc1O tgt="ACHN renal" measured_quantity=growth experimental_value=112
molecule=CC1=C([Te]c2ccccc2)C(=O)c2ccccc2C1=O tgt="ACHN renal" measured_quantity=growth experimental_value=-86.6
molecule=CCOC(=O)c1ccccc1C(=O)OCC tgt="ACHN renal" measured_quantity=growth experimental_value=98.4
molecule=CN1[C@@H](CC(=O)c2ccccc2)CCC[C@H]1CC(=O)c1ccccc1 tgt="ACHN renal" measured_quantity=growth experimental_value=97.3
molecule=CNC(=O)CCl tgt="ACHN renal" measured_quantity=growth experimental_value=114
molecule=Oc1cc(Cl)ccc1Oc1ccc(Cl)cc1Cl tgt="ACHN renal" measured_quantity=growth experimental_value=7.4
molecule=C[C@]12CC[C@H]3[C@@H](C[C@@H]4SC(Nc5ccccc5)=N[C@@]45C/C(=N/O)CC[C@]35C)[C@@H]1CCC2=O tgt="ACHN renal" measured_quantity=growth experimental_value=60.4
molecule=CC/C(=C(\c1ccc(OCCN2CCOCC2)cc1)c1ccc(OC(=O)Cc2ccccc2)cc1)c1ccc(Cl)cc1 tgt="ACHN renal" measured_quantity=growth experimental_value=117
molecule=O=C(Cc1ccccc1)c1ccccc1 tgt="ACHN renal" measured_quantity=growth experimental_value=107
molecule=COc1ccc(N)cc1N tgt="ACHN renal" measured_quantity=growth experimental_value=101
molecule="COC12CC3C4=CCOC5CC(=O)N6c7ccccc7C1(CCN2C4)C6C53 (configuration not stated)" tgt="ACHN renal" measured_quantity=growth experimental_value=113

###

# Tested on: UACC-62 melanoma
# measurement description: NCI-60 one-dose screen, 48 h
# protocol conditions: 10 µM unless noted
The panel holds about 83,000 compounds, 20% with a hit somewhere; the sample as a whole holds those more often. Activity calls are given as the source filed them. How the source made its calls: active means growth percent below 10; inactive means the rest.
Classes used: True (active), False (inactive)

compound=Cc1ccc(NC2=N[C@]34CC(=O)CC[C@]3(C)[C@H]3CC[C@]5(C)C(=O)CC[C@H]5[C@@H]3C[C@@H]4S2)c(C)c1 tgt="UACC-62 melanoma" label_value=False
compound=CC[C@H](C)[C@H](NC(=O)C12CC(NC)(C1)C2)C(=O)N(C)[C@H](C[C@@H](OC(C)=O)c1nc(C(=O)N[C@@H](Cc2ccccc2)C[C@H](C)C(=O)OC)cs1)C(C)C tgt="UACC-62 melanoma" label_value=False
compound=O=C(O)C(F)F tgt="UACC-62 melanoma" label_value=False
compound=S=P(SP(=S)(c1ccccc1)c1ccccc1)(c1ccccc1)c1ccccc1 tgt="UACC-62 melanoma" label_value=False
compound=N#CC(C#N)=Cc1cccc(F)c1 tgt="UACC-62 melanoma" label_value=False
compound=COc1ccc(N)cc1N tgt="UACC-62 melanoma" label_value=False
compound=C[C@]12CC[C@H](O)C[C@@H]1CC[C@@H]1[C@@H]2CC[C@]2(C)OC(=O)CC[C@@H]12 tgt="UACC-62 melanoma" label_value=False
compound=CC1(C)CN=C(NN=C(/C=C/c2ccc(C(F)(F)F)cc2)/C=C/c2ccc(C(F)(F)F)cc2)NC1 tgt="UACC-62 melanoma" label_value=True
compound=CC/C(=C(\c1ccc(OCCN2CCOCC2)cc1)c1ccc(OC(=O)Cc2ccccc2)cc1)c1ccc(Cl)cc1 tgt="UACC-62 melanoma" label_value=False
compound=CNC(=O)CCl tgt="UACC-62 melanoma" label_value=False
compound=C[C@]12CCc3sc(Nc4ccc(OC(F)(F)F)cc4)nc3C1=CC[C@@H]1[C@@H]2CC[C@]2(C)C(=O)CC[C@@H]12 tgt="UACC-62 melanoma" label_value=False
compound="O=P1(N(CCCl)CCCl)NCCCO1 (stereo not drawn)" tgt="UACC-62 melanoma" label_value=False
compound=Cc1cc(N(CCCl)CCCl)ccc1C=Nc1ccc(-c2csc(-c3ccccc3)n2)cc1 tgt="UACC-62 melanoma" label_value=False
compound=Nc1c(Cl)c(Cl)nc(C(=O)O)c1Cl tgt="UACC-62 melanoma" label_value=False
compound=COc1ccc2c(c1)c(-c1nc(-c3c[nH]c4ncccc34)cs1)cn2CCCCN1CCOCC1 tgt="UACC-62 melanoma" label_value=False
compound=CC(C)COC(=O)Cc1ccccc1 tgt="UACC-62 melanoma" label_value=False
compound=CN1[C@@H](CC(=O)c2ccccc2)CCC[C@H]1CC(=O)c1ccccc1 tgt="UACC-62 melanoma" label_value=False
compound=N[C@@H](CCC(=O)CCl)C(=O)O tgt="UACC-62 melanoma" label_value=False
compound="ClC1OC(Cl)(Cl)C(Cl)(Cl)OC1(Cl)Cl (stereo not drawn)" tgt="UACC-62 melanoma" label_value=False
compound=c1ccc2c(c1)sc1ccccc12 tgt="UACC-62 melanoma" label_value=False
compound="COC1C(O)CC(OC2CC(Oc3cc4cc5c(c(O)c4c(O)c3C)C(=O)[C@@H](OC3CC(OC4CC(OC6CC(C)(O)C(OC(C)=O)C(C)O6)C(O)C(C)O4)C(O)C(C)O3)[C@H]([C@H](OC)C(=O)[C@@H](O)[C@@H](C)O)C5)OC(C)C2OC(C)=O)OC1C (stereo partly drawn)" tgt="UACC-62 melanoma" label_value=True
compound=O=[N+]([O-])c1cc(Br)c(O)c(Br)c1 tgt="UACC-62 melanoma" label_value=False
compound="COC12CC3(C)C(C4=CC(=O)OC4)CCC3(O)C3CCC4=CC(=O)CCC4(CO1)C32 (stereo not drawn)" tgt="UACC-62 melanoma" label_value=False

These data points were gathered from PubChem BioAssay (NCI).
